Tested on: enterovirus-68 (EV-68, US/DY/14-18953)
reported-metric: CC50

INSERT INTO assay_data (compound, reported_metric, result) VALUES
  ('CC(C)(C)C(=O)SCCOP(=O)(OCCSC(=O)C(C)(C)C)OCC1=CC(O)C(n2ccc(N)nc2=O)O1 (stereo not drawn) [SATE-ddhC]', 'CC50', '> 100 µM'),
  ('CC(C)(C)C(=O)SCCOP(=O)(OCCSC(=O)C(C)(C)C)OCC1=CC(O)C(n2ccc(=O)[nH]c2=O)O1 (stereo not drawn) [SATE-ddhU]', 'CC50', '> 100 µM'),
  ('CC(C)(C)C(=O)SCCOP(=O)(OCCSC(=O)C(C)(C)C)OCC1=CC(O)C(n2cnc3c(=O)[nH]cnc32)O1 (stereo not drawn) [SATE-ddhI]', 'CC50', '> 100 µM');
